Molecular target: GABAa receptor
Assay: GABAa receptor activity: displacement of 3H-RO15-1788 (3H-Flumazenil) binding in rat cortical tissue homogenate
Conditions: 0.5 nM 3H-RO15-1788 [3H-Flumazenil], 30 min at 4° C., pH 7.4
IC50: recorded values
metricName: IC50 (nM)

substanceSmiles | metricName | unitAnnotation | measuredNumber
CCOc1ccc(-n2c(=O)c3c[nH]c4ccccc4n-3c2=O)cc1 | IC50 | nM | 15
Cc1ccc(-n2c(=O)c3c[nH]c4ccccc4n-3c2=O)cc1 | IC50 | nM | 16
O=c1c2c[nH]c3ccccc3n-2c(=O)n1-c1ccccc1 | IC50 | nM | 9.5
COc1ccc(-n2c(=O)c3c[nH]c4ccc(Br)cc4n-3c2=O)cc1 | IC50 | nM | 2.4
COc1ccc(-n2c(=O)c3c[nH]c4ccccc4n-3c2=O)cc1 | IC50 | nM | 9.5

Reference source: patent US6268496A
